These data points were gathered from PubChem BioAssay (Tox21).

- ASSAY EXPLANATION: qHTS assay to test for compound auto fluorescence at 535 nm (green) in HepG2 cell free culture (AID 720686); further: on the % scale 0 is the no-effect control and ±100 the full control effect
- CONDITION CONTEXT: Cell-free medium, green autofluorescence 485/535 nm; series mostly up to 91.3 µM
Active and inactive are the calls of the source. The call rests on the fitted dose curve; in most records, active means well fitted curve in the direction sought with a large enough effect in the repeat runs; inconclusive means weak or mixed curves; inactive means flat fitted curve, though single readings scatter.
PROPERTY LABEL: fluorescence, % of fluorescein control

A selection of reference data follows.
STRUCTURE STRING: CCOC(=O)/C=C/c1ccccc1
fluorescence, % of fluorescein control: inactive

STRUCTURE STRING: N[C@@H](COP(=O)(O)O)C(=O)O
fluorescence, % of fluorescein control: inactive

STRUCTURE STRING: O=C(O)c1cc(Cl)cc([N+](=O)[O-])c1Cl
fluorescence, % of fluorescein control: inactive

STRUCTURE STRING: COc1cc(NS(=O)(=O)c2ccc(N)cc2)nc(OC)n1
fluorescence, % of fluorescein control: -0.0376% [at 18.6 µM] (inactive)

STRUCTURE STRING: C[C@H](N)[C@H](O)c1cccc(O)c1
fluorescence, % of fluorescein control: 0.027% [at 18.6 µM] (inactive)

Query :: Would you mind telling me what fluorescence, % of fluorescein control value was observed for CC(=C(CCOC(=O)C(C)C)SSC(CCOC(=O)C(C)C)=C(C)N(C=O)Cc1cnc(C)nc1N)N(C=O)Cc1cnc(C)nc1N ?
Result :: inactive

----------
- ASSAY EXPLANATION: qHTS RealTime-Glo MT Cell Viability Assay in HepG2 cells - 0 hour (AID 1224889); further: on the % scale 0 is the no-effect control and ±100 the full control effect; nearly all actives have a fitted effect of over 50% in size
- CONDITION CONTEXT: RealTime-Glo luminescence; series mostly up to 76.8 µM
- Description: U.S. Tox21 Program National Center for Advancing Translational Sciences [NCATS] NIH Chemical Genomics Center [NCGC] U.S. Environmental Protection Agency [EPA] National Institutes of Environmental Health Sciences [NIEHS] National Toxicology Program [NTP] U.S. Food and Drug Administration [FDA] Tox21 Assay Overview: Measure of cell viability is critical in the cell-base assay. Analysis of cell viability is necessary for the characterization of cell responses to cytotoxic drugs and environmental stress. […]
Results filed as inconclusive are left out. Calls of active or inactive are those of the source. The call rests on the fitted dose curve; in most records, active means well fitted cell-killing curve with a large enough effect in the repeat runs; inconclusive means weak or mixed curves, or effect the other way; inactive means flat fitted curve, though single readings scatter.
PROPERTY LABEL: activity change, negative = cytotoxicity

COMPOUND: COc1ccc(Br)c(C)c1
activity change, negative = cytotoxicity: inactive
--
COMPOUND: O=C(c1ccc(O)cc1)c1ccc(O)c(O)c1O
activity change, negative = cytotoxicity: inactive
--
COMPOUND: C=Cc1ccccn1
activity change, negative = cytotoxicity: inactive
--
COMPOUND: C[C@H](CCC(=O)O)[C@H]1CC[C@H]2[C@@H]3C(=O)C[C@@H]4CC(=O)CC[C@]4(C)[C@H]3CC(=O)[C@]12C
activity change, negative = cytotoxicity: inactive
--
COMPOUND: Cc1cccc(OCC(O)CNC(C)(C)C)c1C (stereo not drawn)
activity change, negative = cytotoxicity: inactive
--
COMPOUND: NCCN1CCOCC1
activity change, negative = cytotoxicity: inactive
--
COMPOUND: Cc1cc2cc3c(C)cc(=O)oc3c(C)c2o1
activity change, negative = cytotoxicity: inactive

Next up:
Query :: // returns reported activity change, negative = cytotoxicity for input Cc1ccsc1/C=C/C1=NCCCN1C
Result :: inactive

----------
- ASSAY EXPLANATION: Caspase-3/7 induction in HepG2 cells by small molecules, qHTS assay (AID 1346978); further: on the % scale 0 is the no-effect control and ±100 the full control effect; nearly all actives have a fitted effect of over 15% in size
- CONDITION CONTEXT: HepG2 caspase-3/7 activation, Caspase-Glo luminescence, 17 h; series mostly up to 92.4 µM
Inconclusive results are not listed. The source made the active and inactive calls. Calls come from the whole dose curve; as a rule, active = well fitted activation curve with a large enough effect in the repeat runs; inconclusive = weak or mixed curves; inactive = flat fitted curve, though single readings scatter.
PROPERTY LABEL: caspase activation

Worked cases, answers included:
COMPOUND: O=C1c2ccccc2C(=O)C1c1ccccc1
caspase activation: inactive
//
COMPOUND: CC(=O)/C=C/C1C(C)=CCC(C)C1(C)C (configuration not stated)
caspase activation: inactive
//
COMPOUND: CCCCOC(=O)c1ccccc1
caspase activation: inactive
//
COMPOUND: CCCCCCOc1ccccc1C(N)=O
caspase activation: inactive
//
COMPOUND: CN(C)C(=O)CNC(=O)Cc1ccccc1
caspase activation: inactive

Parameter requested: caspase activation. Apply to each item below.
1. CC/C=C\CC1=C(C)CCC1=O
2. CN(C)CCOCCO
3. CC(C(=O)O)c1ccc2c(c1)CC(=O)c1ccccc1S2 (configuration not stated)
4. C[C@@H]1O[C@@H](O[C@@H]2[C@@H](O)[C@H](OCCc3ccc(O)c(O)c3)O[C@H](CO[C@@H]3O[C@H](CO)[C@@H](O)[C@H](O)[C@H]3O)[C@H]2OC(=O)/C=C/c2ccc(O)c(O)c2)[C@H](O)[C@H](O)[C@H]1O
5. O=S(=O)(O)c1ccc2cc(O)c(S(=O)(=O)O)cc2c1
6. Nc1cccc(O)c1
7. Cc1cc2cc3c(C)cc(=O)oc3c(C)c2o1

Result ::
1. inactive
2. inactive
3. inactive
4. inactive
5. inactive
6. inactive
7. inactive

----------
- TGT: Aryl hydrocarbon receptor (Homo sapiens)
- ASSAY EXPLANATION: qHTS assay to identify small molecule that activate the aryl hydrocarbon receptor (AhR) signaling pathway (AID 743085); further: nearly all actives have a fitted effect of over 15% in size;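 on activation: HG2L7.5c1 human HepG2 liver cells with stably integrated DRE-driven firefly reporter; on the % scale 0 is the no-effect control and ±100 the full control effect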
- CONDITION CONTEXT: HepG2 AhR-luc (HG2L7.5c1), luciferase, 24 h; series mostly up to 70.3 µM
- Text: U.S. Tox21 Program National Center for Advancing Translational Sciences [NCATS] NIH Chemical Genomics Center [NCGC] U.S. Environmental Protection Agency [EPA] National Institutes of Environmental Health Sciences [NIEHS] National Toxicology Program [NTP] U.S. Food and Drug Administration [FDA] Tox21 Assay overview: The Aryl hydrocarbon Receptor (AhR), a member of the family of basic helix-loop-helix transcription factors, is crucial to adaptive responses to environmental changes. […]
Records with an inconclusive call do not appear. The source made the active and inactive calls. Calls come from the whole dose curve; as a rule, active = well fitted activation curve with a large enough effect in the repeat runs; inconclusive = weak or mixed curves; inactive = no such curve, though single readings can be large or run the other way.
Just give me one of these, please: yes (active), no (inactive)

Some solved entries appear below for comparison.
COMPOUND: CCO[Si](CCCS)(OCC)OCC
TGT: Aryl hydrocarbon receptor (Homo sapiens)
CLASS LABEL: no
--
COMPOUND: O=C(NCCc1c[nH]c2ccccc12)c1cccnc1
TGT: Aryl hydrocarbon receptor (Homo sapiens)
CLASS LABEL: yes
--
COMPOUND: FC(F)(F)c1ccccc1-n1ccnc1
TGT: Aryl hydrocarbon receptor (Homo sapiens)
CLASS LABEL: no
--
COMPOUND: Cc1ccsc1/C=C/C1=NCCCN1C
TGT: Aryl hydrocarbon receptor (Homo sapiens)
CLASS LABEL: no
--
COMPOUND: N[C@@H](COP(=O)(O)O)C(=O)O
TGT: Aryl hydrocarbon receptor (Homo sapiens)
CLASS LABEL: no

Query :: Just curious, what result did COc1ccc(S(=O)(=O)N2c3ccc(Cl)cc3[C@@](O)(c3ccccc3Cl)[C@H]2C(=O)N2CCC[C@@H]2C(N)=O)cc1OC get here?
Result :: no

Query :: GET /call?item= OCCN(CCO)c1cccc(Cl)c1 returns the recorded outcome of this test.
Result :: no

Query :: Any idea what this test logged for Cc1nc2n(c(=O)c1CCN1CCC(c3noc4cc(F)ccc34)CC1)CCC[C@H]2O ?
Result :: no

Query :: How did this test come out for O=C(CCN1CCN(CCO)CC1)N1c2ccccc2Sc2ccc(C(F)(F)F)cc21 ?
Result :: no

Query :: Returns: the outcome recorded for Cc1ccc(C=O)cc1C in this assay.
Result :: no

----------
- ASSAY EXPLANATION: qHTS assay to identify small molecule agonists of the sonic hedgehog signaling (Shh) pathway - cell viability counter screen (AID 1259366); further: on the % scale 0 is the no-effect control and ±100 the full control effect; nearly all actives have a fitted effect of over 50% in size
- CONDITION CONTEXT: NIH/3T3 Gli1-Luc viability, CellTiter-Fluor, 24 h; series mostly up to 92.4 µM
Records with an inconclusive call do not appear. Activity calls are given as the source filed them. The call rests on the fitted dose curve; in most records, active means well fitted cell-killing curve with a large enough effect in the repeat runs; inconclusive means weak or mixed curves, or effect the other way; inactive means flat fitted curve, though single readings scatter.
PROPERTY LABEL: viability change, negative = cytotoxic

Solved entries (count: 5):
COMPOUND: COC(=O)CCc1ccc(OCC(O)CNC(C)C)cc1 (centres undefined)
REPORTED: inactive
--
COMPOUND: CCCCCCCCC1CCC(=O)O1 (centres undefined)
REPORTED: inactive
--
COMPOUND: Cc1ccccc1OCC(O)CO (centres undefined)
REPORTED: inactive
--
COMPOUND: COc1cc(N)ccc1C
REPORTED: inactive
--
COMPOUND: CCOc1cc(NC(C)=O)ccc1C(=O)OC
REPORTED: inactive

Value sought for every listed compound: viability change, negative = cytotoxic.
1. C=COCCOCCOCCOC=C
2. Cc1ccc(C=O)cc1C
3. C=C(C)C(=O)OCCOP(=O)(O)OCCOC(=O)C(=C)C
4. OCCN(CCO)c1cccc(Cl)c1
5. CC(C)NCC(O)COc1cccc2[nH]ccc12 (centres undefined)
6. CCCC(=O)C(C)=O

Result ::
1. inactive
2. inactive
3. inactive
4. inactive
5. inactive
6. inactive
